TEST TARGET: jun-1 (T24H10.7) (Caenorhabditis elegans) (UniProt G5ECU7)
Sequence: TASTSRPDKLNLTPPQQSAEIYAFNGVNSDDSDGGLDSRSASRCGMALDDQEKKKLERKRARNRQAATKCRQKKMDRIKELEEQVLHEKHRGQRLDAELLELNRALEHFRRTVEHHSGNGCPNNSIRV
MEASUREMENT KIND: binding signal (PBM E-score (-0.5 to 0.5))

[
  {
    "SEQUENCE DATA": "ATGAGTCA (double strand) [8-mer ATGAGTCA]",
    "RESULT VALUE": 0.493
  },
  {
    "SEQUENCE DATA": "GTGACTCA (double strand) [8-mer GTGACTCA]",
    "RESULT VALUE": 0.47
  },
  {
    "SEQUENCE DATA": "GTGAGTCA (double strand) [8-mer GTGAGTCA]",
    "RESULT VALUE": 0.478
  },
  {
    "SEQUENCE DATA": "ATGACTCA (double strand) [8-mer ATGACTCA]",
    "RESULT VALUE": 0.498
  },
  {
    "SEQUENCE DATA": "ATTAGTCA (double strand) [8-mer ATTAGTCA]",
    "RESULT VALUE": 0.463
  },
  {
    "SEQUENCE DATA": "ATGACTAA (double strand) [8-mer ATGACTAA]",
    "RESULT VALUE": 0.465
  }
]

###

TEST TARGET: T22C8.4 (T22C8.4) (Caenorhabditis elegans) (UniProt Q22677)
Sequence: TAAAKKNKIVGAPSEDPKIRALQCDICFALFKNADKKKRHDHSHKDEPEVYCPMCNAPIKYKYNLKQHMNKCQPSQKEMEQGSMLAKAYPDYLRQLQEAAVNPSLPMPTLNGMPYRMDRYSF
MEASUREMENT KIND: binding signal (PBM E-score (-0.5 to 0.5))

[
  {
    "SEQUENCE DATA": "CCCCTGCA (double strand) [8-mer CCCCTGCA]",
    "RESULT VALUE": 0.493
  },
  {
    "SEQUENCE DATA": "AGCAGGGA (double strand) [8-mer AGCAGGGA]",
    "RESULT VALUE": 0.466
  },
  {
    "SEQUENCE DATA": "CCCTGCTC (double strand) [8-mer CCCTGCTC]",
    "RESULT VALUE": 0.479
  },
  {
    "SEQUENCE DATA": "AGCAGGGG (double strand) [8-mer AGCAGGGG]",
    "RESULT VALUE": 0.499
  },
  {
    "SEQUENCE DATA": "ACCCCTGC (double strand) [8-mer ACCCCTGC]",
    "RESULT VALUE": 0.494
  },
  {
    "SEQUENCE DATA": "CCCCCTGC (double strand) [8-mer CCCCCTGC]",
    "RESULT VALUE": 0.488
  },
  {
    "SEQUENCE DATA": "GCAGGGGA (double strand) [8-mer GCAGGGGA]",
    "RESULT VALUE": 0.495
  },
  {
    "SEQUENCE DATA": "GCAGGGGC (double strand) [8-mer GCAGGGGC]",
    "RESULT VALUE": 0.498
  },
  {
    "SEQUENCE DATA": "CACCCTGC (double strand) [8-mer CACCCTGC]",
    "RESULT VALUE": 0.49
  }
]
